Where these numbers come from: patent US6552060B1

# System: EMT6 mouse mammary tumor cells
# assay-remarks: Cytotoxicity against EMT6 cells in culture (MTT)
# condition-details: read-out: Disulfide Cytotoxicity (IC50), Table 5, 48 h exposure
Recorded measurements of pIC50, one per entry
Hey, just a heads up that pIC50 is the negative log base 10 of the concentration in molar.

compound: CCC(C)SSc1nc(N)nc2[nH]cnc12 (centres unmarked) [Compound F-6]
reported-value: 4.64
//
compound: CCC(C)SSc1nc2cc([N+](=O)[O-])ccc2[nH]1 (centres unmarked) [Compound F-10]
reported-value: 4.44
//
compound: CC(O)C(C)SSc1nc2cc([N+](=O)[O-])ccc2[nH]1 (centres unmarked) [Compound M-10]
reported-value: 4.47
//
compound: CCC(C)SSC1=NCCS1 (centres unmarked) [Compound F-25]
reported-value: 4.51
//
compound: O=C(O)c1cccnc1SSCCCCl [Compound H-23]
reported-value: 4.16

Short answer for CC(O)C(C)SSc1nc(N)nc2[nH]cnc12 (centres unmarked) [Compound M-6] : pIC50 was 4.49

The measured pIC50 associated with CC(O)C(C)SSCc1ccccc1 (centres unmarked) [Compound M-19] reads 4.04

----------
# system-under-test: TR/Trx (Homo sapiens)
# Sequence (Q16881 151-649): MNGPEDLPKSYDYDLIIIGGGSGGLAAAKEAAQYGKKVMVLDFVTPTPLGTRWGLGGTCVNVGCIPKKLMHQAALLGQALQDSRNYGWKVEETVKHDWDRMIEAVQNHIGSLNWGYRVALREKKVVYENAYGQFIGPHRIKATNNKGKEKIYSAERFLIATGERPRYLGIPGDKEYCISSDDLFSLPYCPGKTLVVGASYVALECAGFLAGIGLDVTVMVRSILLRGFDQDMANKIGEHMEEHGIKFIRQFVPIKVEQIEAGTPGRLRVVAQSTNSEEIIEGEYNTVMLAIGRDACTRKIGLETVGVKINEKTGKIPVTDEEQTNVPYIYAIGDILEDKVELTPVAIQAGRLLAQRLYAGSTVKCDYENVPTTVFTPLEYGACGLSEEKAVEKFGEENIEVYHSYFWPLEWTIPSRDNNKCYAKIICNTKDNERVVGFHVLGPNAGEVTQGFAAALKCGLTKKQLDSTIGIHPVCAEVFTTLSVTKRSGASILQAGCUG
# assay-remarks: Thioredoxin dependent reduction of insulin by human thioredoxin reductase and NADPH (IC50 TR/Trx, 96 well)
# Type: biochemical
# condition-details: Table 4
Given measured Disulfide inhibition of TR/Trx (IC50 TR/Trx), output label 1 if it is greater than or equal to 50 µg/mL and label 0 if not.

compound: CCC(C)SSc1ncccc1C(=O)O (stereo not shown) [Compound F-23]
class-label: label 1

Req: Given the entry Cc1ccnc(SSC(C)C)n1 [Compound E-24] , answer whether its Disulfide inhibition of TR/Trx (IC50 TR/Trx) meets or surpasses 50 µg/mL.
Resp: label 1

Req: Hi, just wondering whether Cc1ccnc(SSCC(C)C)n1 [Compound G-24] shows Disulfide inhibition of TR/Trx (IC50 TR/Trx) of 50 µg/mL or higher.
Resp: label 1

Req: Please tell me: is the compound CCC(C)SSc1nc2ccccc2o1 (stereo not shown) [Compound F-12] at or over 50 µg/mL in terms of Disulfide inhibition of TR/Trx (IC50 TR/Trx)?
Resp: label 0

Req: Is Disulfide inhibition of TR/Trx (IC50 TR/Trx) for CC(SSc1ncccc1C(=O)O)c1ccccc1 (stereo not shown) [Compound J-23] at or above 50 µg/mL?
Resp: label 1

Req: Does CC(SSc1nc(N)nc2[nH]cnc12)c1ccccc1 (stereo not shown) [Compound J-6] have a reported Disulfide inhibition of TR/Trx (IC50 TR/Trx) of at least 50 µg/mL?
Resp: label 0

Req: For this compound, is measured Disulfide inhibition of TR/Trx (IC50 TR/Trx) 50 µg/mL or higher? CCCCSSc1nccc(C)n1 [Compound C-24]
Resp: label 0

Req: Given the entry CCC(C)SSc1nc2cc([N+](=O)[O-])ccc2[nH]1 (stereo not shown) [Compound F-10] , answer whether its Disulfide inhibition of TR/Trx (IC50 TR/Trx) meets or surpasses 50 µg/mL.
Resp: label 0

Req: In plain terms: is recorded Disulfide inhibition of TR/Trx (IC50 TR/Trx) at least 50 µg/mL for Cc1nnc(SSCc2ccccc2)s1 [Compound I-3] ?
Resp: label 0

Req: Identify whether the reported Disulfide inhibition of TR/Trx (IC50 TR/Trx) of the following compound is 50 µg/mL or greater: CCSSc1nnc(S)s1 [Compound A-4]
Resp: label 0

Req: I'd appreciate it if you could say whether CCCCSSc1nc2ccccc2[nH]1 [Compound C-8] has Disulfide inhibition of TR/Trx (IC50 TR/Trx) at least equal to 50 µg/mL.
Resp: label 1

Req: Please indicate if the recorded Disulfide inhibition of TR/Trx (IC50 TR/Trx) for CCSSc1nnc(C)s1 [Compound A-3] meets or exceeds 50 µg/mL.
Resp: label 1

Req: Hi, just wondering whether CCCCSSc1nccn1C [Compound C-2] shows Disulfide inhibition of TR/Trx (IC50 TR/Trx) of 50 µg/mL or higher.
Resp: label 1

Req: Record Sc1nnc(SSCc2ccccc2)s1 [Compound I-4] ; criterion: Disulfide inhibition of TR/Trx (IC50 TR/Trx) no lower than 50 µg/mL. Met?
Resp: label 0

Req: Decide: is the reported value of Disulfide inhibition of TR/Trx (IC50 TR/Trx) for COc1ccc(CSSC(C)c2ccccc2)cc1 (stereo not shown) [Compound J-21] equal to or greater than 50 µg/mL?
Resp: label 1

Req: Reported Disulfide inhibition of TR/Trx (IC50 TR/Trx) reaches at least 50 µg/mL for COc1cccc(CSSC(C)c2ccccc2)c1 (stereo not shown) [Compound J-20] ?
Resp: label 1
